Measured values drawn from ChEMBL document CHEMBL2390816 for this set.

Exercise: state measured IC50 for each of the molecules provided.
- tgt: Aurora kinase A (Homo sapiens)
- Sequence (O14965 whole entry): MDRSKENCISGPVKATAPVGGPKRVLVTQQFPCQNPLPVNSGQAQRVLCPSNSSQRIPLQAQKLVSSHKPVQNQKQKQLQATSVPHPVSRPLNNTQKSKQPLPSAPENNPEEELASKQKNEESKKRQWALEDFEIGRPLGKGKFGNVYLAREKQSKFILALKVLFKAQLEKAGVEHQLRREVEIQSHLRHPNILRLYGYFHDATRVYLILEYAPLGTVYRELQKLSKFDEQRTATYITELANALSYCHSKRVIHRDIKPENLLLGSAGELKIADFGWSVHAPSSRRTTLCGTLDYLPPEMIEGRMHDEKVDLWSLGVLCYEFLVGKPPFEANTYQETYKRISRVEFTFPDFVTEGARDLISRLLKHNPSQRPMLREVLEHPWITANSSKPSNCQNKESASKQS
- procedure.text: Inhibition of human recombinant AURKA by FRET assay

Worked cases, answers included:
1. COc1ccc(-c2ccc(CSc3nnc(-c4ccc5c(c4)OCO5)o3)cc2)c(C#N)c1
45 µM
2. N#Cc1ccc(-c2ccc(CSc3nnc(-c4ccncc4)o3)cc2)cc1
> 100 µM
3. c1ccc(-c2ccc(CSc3nnc(-c4ccc5c(c4)OCCO5)o3)cc2)cc1
> 100 µM

Give IC50 for each of the items listed below.
1. Fc1cc(F)cc(-c2ccc(CSc3nnc(-c4ccc5c(c4)OCO5)o3)cc2)c1
2. N#Cc1cccc(-c2ccc(CSc3nnc(-c4ccncc4)o3)cc2)c1

Result:
1: > 100 µM; 2: 60 µM
